Target: human DGAT2 (Homo sapiens, UniProt Q96PD7)
Sequence (Q96PD7 whole entry): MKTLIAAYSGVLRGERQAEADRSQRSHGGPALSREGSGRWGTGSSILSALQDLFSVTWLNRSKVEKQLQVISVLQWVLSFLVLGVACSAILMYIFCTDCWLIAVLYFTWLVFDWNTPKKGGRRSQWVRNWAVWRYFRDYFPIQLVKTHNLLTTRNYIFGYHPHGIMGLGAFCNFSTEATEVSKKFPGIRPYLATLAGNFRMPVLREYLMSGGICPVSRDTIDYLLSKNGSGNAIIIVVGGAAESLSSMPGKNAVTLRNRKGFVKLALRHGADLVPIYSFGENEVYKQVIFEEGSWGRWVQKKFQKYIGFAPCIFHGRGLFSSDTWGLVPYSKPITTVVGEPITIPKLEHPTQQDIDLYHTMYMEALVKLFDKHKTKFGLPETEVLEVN
For each record, check the reported IC50: if it is below 50 nM write label 1, else write label 0.

Solved entries:
compound	targetOrSystem	answerLabel
CC1(NC(=O)c2nn3ccc(Oc4ncc(F)cc4OCC(F)(F)F)c(Cl)c3c2Cl)CCS(=O)(=O)CC1	human DGAT2 (Homo sapiens, UniProt Q96PD7)	label 1
C[C@@]1(NC(=O)c2nn3ccc(Oc4ncccc4OCC(F)(F)F)cc3c2F)CCS(=O)(=O)C1	human DGAT2 (Homo sapiens, UniProt Q96PD7)	label 0
CC(O)c1cnc(Oc2ccn3nc(C(=O)NC4(C)CCS(=O)(=O)CC4)cc3c2)c(OCC(F)(F)F)c1 (single isomer, unassigned) [Example 44b]	human DGAT2 (Homo sapiens, UniProt Q96PD7)	label 0
CC1(NC(=O)c2nn3ccc(Oc4ncccc4OCC(F)(F)F)cc3c2CO)CCS(=O)(=O)CC1	human DGAT2 (Homo sapiens, UniProt Q96PD7)	label 1
CC1(NC(=O)c2nn3ccc(Oc4ncc(F)cc4OCC(F)(F)F)cc3c2C2CC2)CCS(=O)(=O)CC1	human DGAT2 (Homo sapiens, UniProt Q96PD7)	label 1
CC1(NC(=O)c2nn3ccc(Oc4nccnc4OCC(F)(F)F)cc3c2Cl)CCS(=O)(=O)CC1	human DGAT2 (Homo sapiens, UniProt Q96PD7)	label 1

# evaluate next
## Task Given the entry C[C@@]1(NC(=O)c2cc3cc(Oc4ncc(F)cc4OCC(F)(F)F)ccn3n2)CCS(=O)(=O)C1 , would its reported IC50 be below 50 nM?
## Result label 1

* * *

The following are reported log10 of IC50 results, target or system human DGAT2 (Homo sapiens).
Reminder: these figures are log10 of reported IC50, in nM before transformation.

molecule	targetOrSystem	log10 of IC50
CC(O)c1cnc(Oc2ccn3nc(C(=O)NC4(C)CCS(=O)(=O)CC4)cc3c2)c(OCC(F)(F)F)c1 (single isomer, unassigned) [Example 44a]	human DGAT2 (Homo sapiens)	2.05
O=C(NC1CCCN(CC(F)(F)F)C1=O)c1cc2cc(Oc3ncccc3OCC(F)(F)F)ccn2n1 (centres unmarked)	human DGAT2 (Homo sapiens)	2.49

Quick one: give me log10 of IC50 for each item below, same order please.
1. CC1(NC(=O)c2nn3ccc(Oc4ncc(Cl)cc4OCC(F)(F)F)cc3c2F)CS(=O)(=O)C1
2. CC1(NC(=O)c2nn3ccc(Oc4ncccc4OCC(F)(F)F)cc3c2C(F)F)CCS(=O)(=O)CC1
3. CC1(NC(=O)c2nc3cc(Oc4ncc(Cl)cc4OCC(F)(F)F)ccn3n2)CS(=O)(=O)C1
4. CC1(NC(=O)c2cc3cc(Oc4nccnc4OCC(F)(F)F)ccn3n2)CCS(=O)(=O)CC1
5. CC1(NC(=O)c2nn3ccc(Oc4nccnc4OCC(F)F)cc3c2F)CCS(=O)(=O)CC1
6. CC1(NC(=O)c2cc3cc(Oc4ncc(C(O)C(F)(F)F)cc4OCC(F)(F)F)ccn3n2)CS(=O)(=O)C1 (single isomer, unassigned) [Example 45b]
7. CC1(NC(=O)c2nn3ccc(Oc4ncc(Cl)cc4OCC(F)F)nc3c2F)CCS(=O)(=O)CC1

## Result
[0.89, 2.99, 1.83, 1.23, 1.00, 3.19, 2.12]

Quick one: give me log10 of IC50 for each item below, same order please.
1. CC1(NC(=O)c2nn3ccc(Oc4ncc(C#N)cc4OCC(F)(F)F)cc3c2Cl)CCS(=O)(=O)CC1
2. CC1(NC(=O)c2nn3ccc(Oc4ncc(F)cc4OCC(F)(F)F)cc3c2N)CCS(=O)(=O)CC1
3. CCOc1cccc(COc2ccn3nc(C(=O)NC4(C)CCS(=O)(=O)CC4)cc3n2)n1
4. CC1(NC(=O)c2cc3cc(Oc4ncc(C(O)C5CC5)cc4OCC(F)(F)F)ccn3n2)CCS(=O)(=O)CC1 (single isomer, unassigned) [Example 43a]
5. O=C(NC1CCCC1)c1cc2cc(Oc3ncccc3OCC(F)(F)F)ccn2n1

## Result
0.70
1.20
2.42
2.36
3.03
